Could you please report measured TGI for the items listed next?
# System: OVCAR-5 ovarian
# PROTOCOL_DETAILS: NCI tumour cell line growth inhibition, 48 h

For orientation, consider the following solved cases.
C=CCC1NCCC2=C1C(S(=O)(=O)c1ccc(C)cc1)c1ccccc12 (stereo not drawn)	33.2 µM
CC(C)(C)OC(=O)NC(CCCCNC(=O)OCc1ccccc1)C(=O)NC(CCCCNC(=O)OCc1ccccc1)C(=O)ON1C(=O)CCC1=O (stereo not drawn)	> 100 µM
CC(C)[C@@H](C(=O)O[C@@H]1/C=C/C(=O)O[C@@H](C)CCC/C=C/[C@@H]2C[C@H](O)C[C@H]21)[N+](C)(C)C	> 100 µM
CC(=O)OCC1OC(OCC2OC(N3C(=S)N[C@H]([C@@H](O)[C@H](O)[C@H](O)CO)[C@H]3O)C(OC(C)=O)C(OC(C)=O)C2OC(C)=O)C(OC(C)=O)C(OC(C)=O)C1OC(C)=O (stereo partly drawn)	> 100 µM
COc1cc2c(cc1OCCCCC(=O)Nc1ccc(-c3nc4ccccc4s3)cc1)N=C[C@@H]1CCCN1C2=O	11.9 µM
c1ccc(C(CCN2CCCC2)c2ccccn2)cc1 (stereo not drawn)	> 100 µM
CCCNC(=O)c1cc2ccccc2cc1C(=O)OC	> 100 µM

Okay, next one:
(Q) GET /values?readout=TGI&item= CC(C)OC(=O)c1ccc(CCC2=CC(=O)C(Br)=CC2=O)cc1
(A) 42.1 µM

----------
# System: SK-MEL-2 melanoma
# PROTOCOL_DETAILS: NCI tumour cell line growth inhibition, 48 h
Assign GI50 to each entry below.

# count of solved cases: 6
CC(=O)OCCC/C(=C\c1ccc2ccccc2c1)[N+](=O)[O-]	1.71 µM
C[C@@H]1CN(Cc2ccc(/C=C/c3n[nH]c4ccc5nc(-c6cn[nH]c6C(F)(F)F)c6c(c5c34)CCCC6)cc2)C[C@H](C)O1	13.5 µM
CCN(CC)c1ccc(/C=C/C(=O)c2cccc(NS(C)(=O)=O)c2)cc1	> 100 µM
Oc1c(I)cc(I)cc1CNCCCN(Cc1ccccn1)Cc1ccccn1	1.18 µM
COC(=O)C1CC2(c3ccc(C)cc3)C(c3ccc(C)cc3)=C(c3ccc(C)cc3)C1(c1ccc(C)cc1)S2=O (centres undefined)	> 100 µM
O=C(Cc1ccc(/C=C/C(=O)c2ncc[nH]2)cc1)Nc1ccc(Br)cc1	> 16.7 µM

Lab note: each molecule below needs its GI50 filled in.
1. Nc1c(C(=O)Nc2cccc3ccccc23)sc2nc3c(cc12)CCCC3
2. COC(=O)Nc1nc2c(OC)c(OC)c(OC)cc2[nH]1
3. COc1ccc(N2CCN(CC(=O)N3CCN(c4nnc(-c5ccccc5)c(-c5ccccc5)n4)CC3)CC2)cc1

(A)
1. 1.04 µM
2. 15.1 µM
3. 51.3 µM

----------
# Tested on: SK-MEL-2 melanoma
# PROTOCOL_DETAILS: NCI tumour cell line growth inhibition, 48 h
If the reported TGI equals or exceeds 20 µM, assign T. If not, assign F.

N=C1N=C(N)c2cc3c(cc21)SCCSCCCSCCS3	T
C[C@]12CCC(=O)C=C1CC[C@@H]1[C@@H]2C(=O)C[C@@]2(C)[C@H]1CC[C@]2(O)C(=O)CO	T
Oc1c(I)cc(I)cc1CNCCCN(Cc1ccccn1)Cc1ccccn1	F
COc1ccc2[nH]c(C(=O)N3CC(CCl)c4ccc([N+](=O)[O-])cc43)cc2c1 (centres undefined)	T

(Q) Is it the case that NC1=CC(=O)C(=O)c2cccnc21 has TGI reaching or exceeding 20 µM?
(A) F

(Q) Then Cc1cccc2c(N)c3cccc(C(=O)NCC[N+](C)(C)Cc4sc(N5CCOCC5)nc4[N+](=O)[O-])c3nc12 ?
(A) T

(Q) Next entry: O=C([C@H](O)[C@@H](O)c1ccc(Br)cc1)C12CC3CC(CC(C3)C1)C2
(A) T

(Q) Please answer likewise for COC(=O)C[C@H](COCc1ccccc1)NC(=O)C[C@H](COCc1ccccc1)NC(=O)C[C@H](COCc1ccccc1)NC(=O)OC(C)(C)C
(A) T
